# experiment: self-splicing fitness, log relative to wild type (ln ratio); higher = more splicing; Tetrahymena group I intron in knt gene, E. coli kanamycin selection, DiMSum; sequences stand for … in CUCUCU…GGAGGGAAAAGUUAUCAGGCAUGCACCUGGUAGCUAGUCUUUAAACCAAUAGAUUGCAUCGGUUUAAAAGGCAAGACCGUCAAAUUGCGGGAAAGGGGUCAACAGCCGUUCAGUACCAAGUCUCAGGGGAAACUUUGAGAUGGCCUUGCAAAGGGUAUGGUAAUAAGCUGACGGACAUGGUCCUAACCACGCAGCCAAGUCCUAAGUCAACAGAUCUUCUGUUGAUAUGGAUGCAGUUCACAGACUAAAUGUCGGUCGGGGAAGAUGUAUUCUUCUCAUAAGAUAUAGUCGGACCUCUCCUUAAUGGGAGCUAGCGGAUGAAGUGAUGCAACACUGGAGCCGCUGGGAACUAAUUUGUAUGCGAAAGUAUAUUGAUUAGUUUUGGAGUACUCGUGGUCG;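 further: selection with 25 µg/mL kanamycin versus none on LB agar overnight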
# settings: 30 °C
quantity.name: self-splicing fitness (ln)

In [3]: df
Out[3]:
        polymer_sequence  observed_measurement
 0  ACUCAGCAAUAUUACGUGGC                 -3.04
 1  UCUUAGCAAUAUUACGAAGC                 -2.94
 2  AGUUAGCAAUAUUACGAUAC                  -2.6
 3  CAACAGCAAUAUUACGCCAU                 -3.25
 4  CGCGAGCAAUAUUACGCCGU                 -3.93
 5  UGGUAGCAAUAUUACGGCUU                 0.166
 6  GCACAGCAAUAUUACGACAG                 -2.97
 7  GAUCAGCAAUAUUACGAGCU                 -1.42
 8  UCGGAGCAAUAUUACGUGGG                 -3.49
 9  UCUCAGCAAUAUUACGUAAG                 -2.07
10  GGUCAGCAAUAUUACGGCCU                 -2.84
11  ACACAGCAAUAUUACGAAAA                  -3.2
12  UCUGAGCAAUAUUACGGCUA                 -3.33
13  GAGAAGCAAUAUUACGCGCU                 -2.03
14  ACCUAGCAAUAUUACGUCAU                 -2.11
15  CACGAGCAAUAUUACGCAUU                 -4.65
16  CCAUAGCAAUAUUACGAAAG                 -2.11
17  GUAAAGCAAUAUUACGCGGC                 -2.96
18  UAACAGCAAUAUUACGCGGU                 -3.25
19  GACCAGCAAUAUUACGUUGA                -0.701
20  CCUCAGCAAUAUUACGCAUC                 -2.68
21  AUCGAGCAAUAUUACGCAUU                  -1.6
22  UGAUAGCAAUAUUACGCGCA                -0.408
23  GCUCAGCAAUAUUACGGGAA                -0.173
24  CUAUAGCAAUAUUACGCCGU                 -3.51
25  AUCGAGCAAUAUUACGAUUA                 -2.47
26  GUACAGCAAUAUUACGUGCG                 -2.57
27  CUUAAGCAAUAUUACGAGGC                 -3.19
28  GUAAAGCAAUAUUACGGUUC                -0.687
29  ACGUAGCAAUAUUACGCACU                 -1.46
30  GAGUAGCAAUAUUACGAUAC                 -2.31
31  UAUCAGCAAUAUUACGGAUA                 -2.17
32  GCCGAGCAAUAUUACGGUAC                 -2.88
33  AGGUAGCAAUAUUACGCACC                 -2.33
34  GUCCAGCAAUAUUACGUGAG                 0.151
35  GGGAAGCAAUAUUACGGGGA                 -1.49
36  CCGUAGCAAUAUUACGUCAU                 -3.33
37  GCAUAGCAAUAUUACGACUG                 -1.68
38  GGUGAGCAAUAUUACGACAU                 -1.27
39  GUGUAGCAAUAUUACGUAGC                 -3.09
40  UAGUAGCAAUAUUACGUACA                 -1.05
41  AUAAAGCAAUAUUACGGGUG                 -1.03
42  UCGAAGCAAUAUUACGUCUC                 -2.49
43  AUCAAGCAAUAUUACGGUCC                 -1.55
44  AGGGAGCAAUAUUACGUUAU                 -3.84
